Listed below: pest or weed control at 500 g/ha values for each entry.
Test system: greenhouse red spider mite (Tetranychus urticae)
Assay: Tetranychus urticae spray test, OP-resistant (TETRUR), bean leaf disks
Assay type: in vivo
Settings: Tetranychus urticae, foliar, 144 h, application rate 500 g/ha, after 6 days; read-out: efficacy (spider mites killed)
MEASUREMENT KIND: pest or weed control at 500 g/ha (%)

* Cc1cc(C)c([S+]([O-])CC(F)(F)F)cc1/N=C(\N)c1ccc(Cl)nc1 (stereo not drawn) | 100
* N/C(=N\c1cc(SCC(F)(F)F)c(Cl)cc1Cl)c1ccncc1 | 90
* Cc1ccc(/N=C(/N)C(F)(F)F)cc1SCC(F)(F)F | 100
* Cc1cc(F)c(/N=C(\NC2CC2)c2ccc(Cl)nc2)cc1SCC(F)(F)F | 100
* O=C1CS/C(=N\c2ccc(Cl)c([S+]([O-])CC(F)(F)F)c2)N1CC(F)(F)F (stereo not drawn) | 90
* CN/C(=N/c1cc(SCC(F)(F)F)c(C)cc1F)c1cccc(C(F)(F)F)c1 | 100
* CN/C(=N/c1cc(SCC(F)(F)F)c(F)cc1Cl)C(F)(F)F | 100
* Cc1cc(Cl)c(/N=C(\N)C(F)(F)F)cc1SCC(F)(F)F | 100
* CCN/C(=N\c1cc([S+]([O-])CC(F)(F)F)c(C)cc1F)C1CC1 (stereo not drawn) | 100

###

System: greenhouse red spider mite (Tetranychus urticae)
Test: Tetranychus urticae spray test, OP-resistant (TETRUR), bean leaf disks
Type: in vivo
Conditions: Tetranychus urticae, foliar, 144 h, application rate 500 g/ha, after 6 days; read-out: efficacy (spider mites killed)
MEASUREMENT KIND: pest or weed control at 500 g/ha

- COc1cc(C)c(SCC(F)(F)F)cc1/N=C(\N)C1(Cl)CC1 [Ia-255]: 90%
- CN/C(=N\c1cc([S+]([O-])CC(F)(F)F)c(Cl)cc1Cl)c1ccc(Cl)cc1 (stereo not drawn) [Ib-149]: 90%
- CN/C(=N\c1cc(SCC(F)(F)F)c(C)cc1C)c1ccncc1 [Ia-239]: 100%

###

Experiment: logP by HPLC on reversed-phase columns (C 18), EEC Directive 79/831 Annex V.A8
Format: physicochemical
Settings: pH 7.8
Marks after values point to notes of the source that are not given here.
MEASUREMENT KIND: logP(neutral)

* CNC(=Nc1cc(SCC(F)(F)F)c(Cl)cc1Cl)C(F)(F)F | 4.2^[a]; 4.2^[b]
* CCNC(=Nc1cc(SCC(F)(F)F)c(C)cc1F)C(F)(F)F | 4.12^[a]; 4.12^[b]
* Cc1cc(C)c(SCC(F)(F)F)cc1N=C(N(C)C)C(F)(F)F | 4.87^[a]; 4.87^[b]
* Cc1cc(F)c(N=C(N)C(F)(F)F)cc1SCC(F)(F)F | 3.12^[b]

###

Assay: logP by HPLC on reversed-phase columns (C 18), EEC Directive 79/831 Annex V.A8
Type: physicochemical
Details: pH 2.7
MEASUREMENT KIND: logP(HCOOH)

* N/C(=N/c1ccc(C(F)(F)F)c([S+]([O-])CC(F)(F)F)c1)C(F)(F)F (centres unmarked) | 2.2
* Cc1cc(F)c(/N=C(/N)C(F)(F)F)cc1[S+]([O-])CC(F)(F)F (centres unmarked) | 2.77
* CNC(=Nc1cc([S+]([O-])CC(F)(F)F)c(C)cc1F)C(F)(F)F (centres unmarked) | 2.64
* Cc1cc(F)c(SCC(F)(F)F)cc1N=C(N)C(F)(F)F | 3.16

###

Assay: logP by HPLC on reversed-phase columns (C 18), EEC Directive 79/831 Annex V.A8
Format: physicochemical
Settings: reversed-phase C18 HPLC column, pH 7.8, [b] LC-MS, neutral range, pH 7.8, 0.001 molar aqueous ammonium bicarbonate/acetonitrile; read-out: logP(neutral)
MEASUREMENT KIND: chromatographic logP

- Cc1cc(F)c(/N=C(\c2cccn2C)N(C)C)cc1SCC(F)(F)F: 4.11
- O=C(Nc1cc(SSc2cc(NC(=O)C(F)(F)F)c(F)cc2Br)c(Br)cc1F)C(F)(F)F: 4.02
- Cc1cc(F)c(SSc2cc(NC(=O)C(F)(F)F)c(C)cc2F)cc1NC(=O)C(F)(F)F: 3.92

###

Assay: logP by HPLC on reversed-phase columns (C 18), EEC Directive 79/831 Annex V.A8
Assay type: physicochemical
Details: reversed-phase C18 HPLC column, pH 7.8, [b] LC-MS, neutral range, pH 7.8, 0.001 molar aqueous ammonium bicarbonate/acetonitrile; read-out: logP(neutral)
MEASUREMENT KIND: chromatographic logP

- CN/C(=N/c1cc(SCC(F)(F)F)c(C)cc1F)c1ccc(C(F)(F)F)cc1 [Ia-250]: 4.08
- Cc1cc(F)c(/N=C(\c2ccco2)N(C)C)cc1SCC(F)(F)F [Ia-166]: 3.94
- Cc1cc(F)c(/N=C2\SCC(=O)N2CC(F)(F)F)cc1SCC(F)(F)F [Ia-175]: 3.99
- O=C(Nc1cc(SCC(F)(F)F)c(Br)cc1Cl)C(F)(F)F [III-9]: 3.11
- CN/C(=N/c1cc([S+]([O-])CC(F)(F)F)c(Cl)cc1Cl)C(F)(F)F (stereo not shown) [Ib-21]: 3.32
- Cc1cc(F)ccc1NC(=O)C(F)(F)F [VI-2]: 2.19
- Cc1cc(F)c(/N=C(/N(C)C)C(F)(F)F)cc1SCC(F)(F)F [Ia-01]: 4.5
- Cc1cc(F)c(/N=C(/Nc2ccccc2)C(F)(F)F)cc1SCC(F)(F)F [Ia-96]: 4.37
- Cc1cc(F)c(/N=C2\CCCN2c2ccccc2)cc1[S+]([O-])CC(F)(F)F (stereo not shown) [Ib-55]: 3.47
- O=C(Nc1cc(SSc2cc(NC(=O)C(F)(F)F)c(Br)cc2Br)c(Br)cc1Br)C(F)(F)F [IV-4]: 4.49

###

Tested on: greenhouse red spider mite (Tetranychus urticae)
Assay: Tetranychus urticae spray test, OP-resistant (TETRUR), bean leaf disks
Assay type: in vivo
Conditions: Tetranychus urticae, foliar, 144 h, application rate 500 g/ha, after 6 days; read-out: efficacy (spider mites killed)
MEASUREMENT KIND: pest or weed control at 500 g/ha (%)

- Cc1cc(F)c(/N=C(\N)c2ccc(Cl)nc2)cc1[S+]([O-])CC(F)(F)F (stereo not shown): 100
- [O-][S+](CC(F)(F)F)c1cc(/N=C(\NCC(F)F)C2CC2)c(Cl)cc1Cl (stereo not shown): 100
- CCN/C(=N\c1cc([S+]([O-])CC(F)(F)F)c(C)cc1F)c1cccnc1 (stereo not shown): 100
- CN(C)/C(=N/c1cc(SCC(F)(F)F)c(F)cc1Cl)C(F)(F)F: 80
- N/C(=N\c1cc([S+]([O-])CC(F)(F)F)c(Cl)cc1Cl)c1ccncn1 (stereo not shown): 100
- COC/C(N)=N/c1cc(SCC(F)(F)F)c(C)cc1F: 100
- Cc1cc(F)c(/N=C(\N)C(F)(F)Cl)cc1SCC(F)(F)F: 100
- O=C1CS/C(=N\c2cc(SCC(F)(F)F)c(Cl)cc2Cl)N1C1CC1: 90
- Cc1cc(F)c(/N=C(\N)C(F)(F)C(F)(F)Cl)cc1[S+]([O-])CC(F)(F)F (stereo not shown): 100
- Cc1cc(Cl)c(SCC(F)(F)F)cc1/N=C(\N)C1CC1: 90
- O=C1CS/C(=N\c2cc([S+]([O-])CC(F)(F)F)c(Cl)cc2F)N1CC(F)(F)F (stereo not shown): 100
- Cc1cc(F)c(/N=C(/NCC2CC2)C(F)(F)F)cc1[S+]([O-])CC(F)(F)F (stereo not shown): 100
- Cc1ccc(/N=C(/N)C(F)(F)F)cc1[S+]([O-])CC(F)(F)F (stereo not shown): 90
- Cc1cc(F)c(/N=C(\N)C2CCCO2)cc1SCC(F)(F)F (stereo not shown): 100
- Cc1cc(C)c([S+]([O-])CC(F)(F)F)cc1/N=C(/c1ccc(Cl)cc1)N(C)C (stereo not shown): 90
- Cc1cc(Cl)c(SCC(F)(F)F)cc1/N=C(\N)c1cnccn1: 100

###

Test system: greenhouse red spider mite (Tetranychus urticae)
Test: Tetranychus urticae spray test, OP-resistant (TETRUR), bean leaf disks
Type: in vivo
Conditions: Tetranychus urticae, foliar, 144 h, application rate 500 g/ha, after 6 days; read-out: efficacy (spider mites killed)
MEASUREMENT KIND: pest or weed control at 500 g/ha (%)

- O=C1CS/C(=N\c2cc([S+]([O-])CC(F)(F)F)c(Cl)cc2Cl)N1C1CC1 (stereo not drawn): 90
- Cc1cc(Cl)c(/N=C(/c2ccc(Cl)cc2)N(C)C)cc1SCC(F)(F)F: 100
- FC(F)(F)CN/C(=N\c1cc(SCC(F)(F)F)c(Cl)cc1Cl)C1CCC1: 90
- CN/C(=N/c1cc(SCC(F)(F)F)c(Br)cc1F)C(F)(F)F: 100
- COc1ccc(N/C(=N/c2cc([S+]([O-])CC(F)(F)F)c(C)cc2F)C(F)(F)F)cc1 (stereo not drawn): 100
- CN(C)/C(=N/c1cc(SCC(F)(F)F)c(Br)cc1Br)C(F)(F)F: 100
- Cc1cc(F)c(/N=C(\c2cccc(F)c2)N(C)C)cc1SCC(F)(F)F: 100
- CN/C(=N/c1cc(SCC(F)(F)F)c(C)cc1F)c1ccc(C(F)(F)F)cc1: 90
- Cc1cc(C)c([S+]([O-])CC(F)(F)F)cc1/N=C1\SCC(=O)N1C1CC1 (stereo not drawn): 90
- Cc1cc(F)c(/N=C(/Nc2ccccc2)C(F)(F)F)cc1[S+]([O-])CC(F)(F)F (stereo not drawn): 100
- Cc1cc(F)c(/N=C(\NCC(F)(F)F)C2CCC2)cc1[S+]([O-])CC(F)(F)F (stereo not drawn): 90
- Cc1cc(C)c(SCC(F)(F)F)cc1/N=C1\CCCN1C: 90
- Cc1cc(F)c(/N=C(\N)c2ccncc2)cc1SCC(F)(F)F: 100
- O=C1CS/C(=N\c2cc(SCC(F)(F)F)c(Cl)cc2F)N1CC(F)(F)F: 90
- Cc1cc(F)c(/N=c2\sc(C)c(C)n2CC(F)(F)F)cc1SCC(F)(F)F: 100
- N/C(=N\c1cccc(SCC(F)(F)F)c1)C1(Cl)CC1: 100
- Cc1cc(F)c(/N=C(/N(C)C)C(F)(F)F)cc1SCC(F)(F)F: 100
- Cc1cc(Cl)c(/N=C(\N)C2(Cl)CC2)cc1[S+]([O-])CC(F)(F)F (stereo not drawn): 100
- Cc1cc(F)c(/N=C(\NC2CC2)c2ccc(Cl)nc2)cc1[S+]([O-])CC(F)(F)F (stereo not drawn): 100
- CN/C(=N/c1cc(SCC(F)(F)F)c(C)cc1F)c1ccc(Cl)s1: 90
- CN/C(=N\c1cc(SCC(F)(F)F)c(C)cc1F)c1cccc(Cl)c1: 100
